molecular target: Peroxisome proliferator-activated receptor alpha (Homo sapiens); test: Agonist activity at PPARalpha ligand binding domain expressed in human Hep G2 cells co-transfected with Gal4-DBD by luciferase reporter gene assay
Sequence (Q07869 whole entry, the tested form may be a part): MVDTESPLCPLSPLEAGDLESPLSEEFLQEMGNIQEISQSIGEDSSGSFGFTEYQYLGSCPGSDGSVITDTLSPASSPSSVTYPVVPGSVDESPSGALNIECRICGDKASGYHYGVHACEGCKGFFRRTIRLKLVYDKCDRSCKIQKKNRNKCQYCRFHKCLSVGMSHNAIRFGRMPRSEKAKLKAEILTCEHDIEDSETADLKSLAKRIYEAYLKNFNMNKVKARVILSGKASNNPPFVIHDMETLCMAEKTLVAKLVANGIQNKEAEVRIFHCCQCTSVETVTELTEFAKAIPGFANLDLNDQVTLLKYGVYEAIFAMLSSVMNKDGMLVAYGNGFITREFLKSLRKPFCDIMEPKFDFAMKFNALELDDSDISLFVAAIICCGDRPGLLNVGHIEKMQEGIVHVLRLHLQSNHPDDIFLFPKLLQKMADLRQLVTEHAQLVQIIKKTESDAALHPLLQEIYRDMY
measured.quantity: EC50
For clarity, give the value followed by its unit.

EC50 recorded for this compound, O=C(O)[C@H](Cc1ccccc1)Oc1ccc(CCc2ccccc2)cc1 , is 150 nM

// EC50 lookup, compound = O=C(O)[C@H](Cc1ccccc1)Oc1ccc(Cc2ccccc2)cc1 , result: 11 nM
